target: Bcl-2 protein (Homo sapiens (Human))
Sequence (P10415 other isoform, or with tags, fused parts or gaps): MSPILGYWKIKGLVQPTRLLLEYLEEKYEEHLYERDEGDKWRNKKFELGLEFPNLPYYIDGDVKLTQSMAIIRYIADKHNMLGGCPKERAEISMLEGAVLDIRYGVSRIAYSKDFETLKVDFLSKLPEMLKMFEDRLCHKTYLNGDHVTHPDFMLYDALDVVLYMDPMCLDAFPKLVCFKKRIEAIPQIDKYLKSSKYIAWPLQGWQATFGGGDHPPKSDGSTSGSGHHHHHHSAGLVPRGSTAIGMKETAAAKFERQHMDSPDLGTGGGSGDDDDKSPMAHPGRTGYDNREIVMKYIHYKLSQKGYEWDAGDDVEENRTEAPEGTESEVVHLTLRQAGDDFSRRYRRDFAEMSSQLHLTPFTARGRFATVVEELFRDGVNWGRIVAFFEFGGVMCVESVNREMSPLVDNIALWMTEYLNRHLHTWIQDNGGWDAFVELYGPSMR
API: label(entry) gives True if the entry's Ki is strictly smaller than 200 pM; on equality or larger values it gives False.

See these solved cases before continuing.
{"columns": ["compound", "tgt", "assigned-category"],
 "data": [
  ["COC[C@]1(F)C[C@H](CNc2ccc(S(=O)(=O)NC(=O)c3ccc(N4CCN5CC6=C(c7ccc(Cl)cc7)CC(C)(C)C[C@H]6OCCCOC[C@@H]5C4)cc3N3CCCOc4nc5[nH]ccc5cc43)cc2[N+](=O)[O-])C1", "Bcl-2 protein (Homo sapiens (Human))", "False"],
  ["CC1(C)CC(c2ccc(Cl)cc2)=C2CN3CCN(c4ccc(C(=O)NS(=O)(=O)c5ccc(OC[C@H]6CC[C@](C)(O)CC6)c([N+](=O)[O-])c5)c(N5CCCOc6nc7[nH]ccc7cc65)c4)C[C@H]3COCCCO[C@@H]2C1", "Bcl-2 protein (Homo sapiens (Human))", "True"],
  ["CC1(C)CC(c2ccc(Cl)cc2)=C2CN3CCN(c4ccc(C(=O)NS(=O)(=O)c5ccc(NCC6CCCCO6)c([N+](=O)[O-])c5)c(N5CCCOc6nc7[nH]ccc7cc65)c4)C[C@H]3COCCCO[C@@H]2C1 (some centres unmarked)", "Bcl-2 protein (Homo sapiens (Human))", "False"],
  ["CO[C@@H]1CC[C@@H](COc2ccc(S(=O)(=O)NC(=O)c3ccc(N4CCN5CC6=C(c7ccc(Cl)cc7)CC(C)(C)C[C@H]6OCCCOC[C@@H]5C4)cc3N3CCCOc4nc5[nH]ccc5cc43)cc2[N+](=O)[O-])OC1", "Bcl-2 protein (Homo sapiens (Human))", "True"]
]}

Task: Hello, is Ki of the following compound strictly smaller than 200 pM? `CC1(C)CC(c2ccc(Cl)cc2)=C2CN3CCN(c4ccc(C(=O)NS(=O)(=O)c5cnc(OC[C@H]6CC[C@@](C)(O)CC6)c(Cl)c5)c(N5CCCOc6nc7[nH]ccc7cc65)c4)C[C@H]3COCCCO[C@@H]2C1`
Result: False
